- ASSAY_COMMENT: Pharmacokinetic study of six aconitum alkaloids in rat plasma after oral Fu Zi extracts (UPLC-MS/MS)
- Format: in vivo, Sprague Dawley rats
- CONDITION_DESCRIPTION: both sexes, Sprague Dawley, in vivo; SD rat plasma, oral Fu Zi extracts 0.5 g/kg, mean ± SD, n = 8
Each item that follows carries a reported Tmax.
Reply with just the number (in h).

# count of solved cases: 2
>  <COMPOUND>
COC[C@@]12CC[C@H](OC)[C@]34C(C([C@H](OC)[C@H]13)[C@]1(OC(C)=O)[C@H]3[C@@H](OC(=O)c5ccccc5)[C@](O)(C[C@H]34)[C@@H](OC)[C@@H]1O)N(C)C2

>  <RESULT_UNIT>
h

>  <RESULT_VALUE>
2.14

$$$$
>  <COMPOUND>
CCN1CC2(COC)C(O)CC(OC)C34C5CC6(O)C(OC)C(O)C(O)(C5C6OC(=O)c5ccccc5)C(C(OC)C23)C14 (stereo not drawn)

>  <RESULT_UNIT>
h

>  <RESULT_VALUE>
3.72

$$$$

Next up:
Q) In one line, give reported Tmax of the entry `CCN1C[C@]2(COC)[C@H](O)C[C@H](OC)[C@@]34[C@@H]5C[C@@]6(O)[C@H](OC(=O)c7ccccc7)[C@@H]5[C@@](OC(C)=O)([C@@H]([C@H](OC)[C@H]23)[C@@H]14)[C@@H](O)[C@@H]6OC` .
A) 4.38

====

- ASSAY_COMMENT: Pharmacokinetic study of six aconitum alkaloids in rat plasma after oral Fu Zi extracts (UPLC-MS/MS)
- Type: in vivo, Sprague Dawley rats
- CONDITION_DESCRIPTION: both sexes, Sprague Dawley, in vivo; SD rat plasma, oral Fu Zi extracts 2.0 g/kg, mean ± SD, n = 8; read-out: t1/2z (converted)
EXPERIMENTAL_ENDPOINT: half-life (h)
Report only the number, with the unit h understood.

Past entries and their recorded results:
>  <MOLECULE>
CCN1CC2(COC)C(O)CC(OC)C34C5CC6(O)C(OC)C(O)C(O)(C5C6OC(=O)c5ccccc5)C(C(OC)C23)C14 (stereo not drawn)

>  <half-life / h>
13.7

$$$$
>  <MOLECULE>
CCN1C[C@]2(COC)[C@H](O)C[C@H](OC)[C@@]34[C@@H]5C[C@@]6(O)[C@H](OC(=O)c7ccccc7)[C@@H]5[C@@](OC(C)=O)([C@@H]([C@H](OC)[C@H]23)[C@@H]14)[C@@H](O)[C@@H]6OC

>  <half-life / h>
11.5

$$$$

Q) Specify half-life for `COC[C@@]12CC[C@H](OC)[C@]34C(C([C@H](OC)[C@H]13)[C@]1(OC(C)=O)[C@H]3[C@@H](OC(=O)c5ccccc5)[C@](O)(C[C@H]34)[C@@H](OC)[C@@H]1O)N(C)C2` and stop.
A) 11.9

====

The following compounds are listed with their measured CL/F values.
- ASSAY_COMMENT: Pharmacokinetic study of six aconitum alkaloids in rat plasma after oral Fu Zi extracts (UPLC-MS/MS)
- Type: in vivo, Sprague Dawley rats
- CONDITION_DESCRIPTION: both sexes, Sprague Dawley, in vivo; SD rat plasma, oral Fu Zi extracts 0.5 g/kg, mean ± SD, n = 8; read-out: CLz/F (converted)
State just the number; it will be interpreted in mL/min/kg.

>  <COMPOUND>
COC[C@@]12CC[C@H](OC)[C@]34C(C([C@H](OC)[C@H]13)[C@]1(OC(C)=O)[C@H]3[C@@H](OC(=O)c5ccccc5)[C@](O)(C[C@H]34)[C@@H](OC)[C@@H]1O)N(C)C2

>  <CL/F / mL/min/kg>
67

$$$$

Q) Quickly give me recorded CL/F for `CCN1C[C@]2(COC)[C@H](O)C[C@H](OC)[C@@]34[C@@H]5C[C@@]6(O)[C@H](OC(=O)c7ccccc7)[C@@H]5[C@@](OC(C)=O)([C@@H]([C@H](OC)[C@H]23)[C@@H]14)[C@@H](O)[C@@H]6OC`
A) 77

Q) State its CL/F for this compound: CCN1CC2(COC)C(O)CC(OC)C34C5CC6(O)C(OC)C(O)C(O)(C5C6OC(=O)c5ccccc5)C(C(OC)C23)C14 (stereo not drawn)
A) 460

====

- ASSAY_COMMENT: Pharmacokinetic study of six aconitum alkaloids in rat plasma after oral Fu Zi extracts (UPLC-MS/MS)
- Format: in vivo, Sprague Dawley rats
- CONDITION_DESCRIPTION: both sexes, Sprague Dawley, in vivo; SD rat plasma, oral Fu Zi extracts 0.5 g/kg, mean ± SD, n = 8; read-out: t1/2z (converted)
EXPERIMENTAL_ENDPOINT: half-life (h)
// note: answer is a bare numeric in h

Worked cases, half-life given:
>  <COMPOUND>
COC[C@@]12CC[C@H](OC)[C@]34C(C([C@H](OC)[C@H]13)[C@]1(OC(C)=O)[C@H]3[C@@H](OC(=O)c5ccccc5)[C@](O)(C[C@H]34)[C@@H](OC)[C@@H]1O)N(C)C2

>  <half-life [h]>
1.83

$$$$
>  <COMPOUND>
CCN1C[C@]2(COC)[C@H](O)C[C@H](OC)[C@@]34[C@@H]5C[C@@]6(O)[C@H](OC(=O)c7ccccc7)[C@@H]5[C@@](OC(C)=O)([C@@H]([C@H](OC)[C@H]23)[C@@H]14)[C@@H](O)[C@@H]6OC

>  <half-life [h]>
1.9

$$$$

Q) Output measured half-life for this item: CCN1CC2(COC)C(O)CC(OC)C34C5CC6(O)C(OC)C(O)C(O)(C5C6OC(=O)c5ccccc5)C(C(OC)C23)C14 (stereo not drawn)
A) 4.48

====

Overview of reported CL/F across a group of compounds:
- ASSAY_COMMENT: Pharmacokinetic study of six aconitum alkaloids in rat plasma after oral Fu Zi extracts (UPLC-MS/MS)
- Format: in vivo, Sprague Dawley rats
- CONDITION_DESCRIPTION: both sexes, Sprague Dawley, in vivo; SD rat plasma, oral Fu Zi extracts 2.0 g/kg, mean ± SD, n = 8; read-out: CLz/F (converted)
Numeric only. Scale: mL/min/kg

Here are 2 compounds together with their reported answers.
>  <COMPOUND>
COC[C@@]12CC[C@H](OC)[C@]34C(C([C@H](OC)[C@H]13)[C@]1(OC(C)=O)[C@H]3[C@@H](OC(=O)c5ccccc5)[C@](O)(C[C@H]34)[C@@H](OC)[C@@H]1O)N(C)C2

>  <RESULT_VALUE>
79.7

$$$$
>  <COMPOUND>
CCN1C[C@]2(COC)[C@H](O)C[C@H](OC)[C@@]34[C@@H]5C[C@@]6(O)[C@H](OC(=O)c7ccccc7)[C@@H]5[C@@](OC(C)=O)([C@@H]([C@H](OC)[C@H]23)[C@@H]14)[C@@H](O)[C@@H]6OC

>  <RESULT_VALUE>
148

$$$$

Kindly consider the entry below.
Q) Dear colleague, please send me the reported CL/F for CCN1CC2(COC)C(O)CC(OC)C34C5CC6(O)C(OC)C(O)C(O)(C5C6OC(=O)c5ccccc5)C(C(OC)C23)C14 (stereo not drawn) when you can.
A) 583

====

- ASSAY_COMMENT: Pharmacokinetic study of six aconitum alkaloids in rat plasma after oral Fu Zi extracts (UPLC-MS/MS)
- Type: in vivo, Sprague Dawley rats
- CONDITION_DESCRIPTION: both sexes, Sprague Dawley, in vivo; SD rat plasma, oral Fu Zi extracts 1.0 g/kg, mean ± SD, n = 8; read-out: CLz/F (converted)
# reported CL/F; entries follow
Kindly provide the numeric value in mL/min/kg only, without the unit symbol.

>  <COMPOUND>
CCN1C[C@]2(COC)[C@H](O)C[C@H](OC)[C@@]34[C@@H]5C[C@@]6(O)[C@H](OC(=O)c7ccccc7)[C@@H]5[C@@](OC(C)=O)([C@@H]([C@H](OC)[C@H]23)[C@@H]14)[C@@H](O)[C@@H]6OC [AC, aconitine]

>  <EXPERIMENTAL_ENDPOINT>
CL/F

>  <RESULT_UNIT>
mL/min/kg

>  <RESULT_VALUE>
106

$$$$
>  <COMPOUND>
COC[C@@]12CC[C@H](OC)[C@]34C(C([C@H](OC)[C@H]13)[C@]1(OC(C)=O)[C@H]3[C@@H](OC(=O)c5ccccc5)[C@](O)(C[C@H]34)[C@@H](OC)[C@@H]1O)N(C)C2 [HA, hypaconitine]

>  <EXPERIMENTAL_ENDPOINT>
CL/F

>  <RESULT_UNIT>
mL/min/kg

>  <RESULT_VALUE>
59.5

$$$$

Q) Specify measured CL/F for CCN1CC2(COC)C(O)CC(OC)C34C5CC6(O)C(OC)C(O)C(O)(C5C6OC(=O)c5ccccc5)C(C(OC)C23)C14 (stereo not drawn) [BAC, benzoylaconine] .
A) 271
